Answer each item with its documented growth.
Test system: SNB-19 CNS
procedure_details: NCI-60 one-dose screen, 48 h (100 = growth as untreated, 0 = no growth, -100 = all killed)
run_parameters: 10 µM unless noted
Compounds without any hit were thinned out: in the full panel of roughly 83,000, 20% have a hit. Activity calls are given as the source filed them. How the source made its calls: active means growth percent below 10; inactive means the rest.

State its growth on SNB-19 CNS: CCC(C)NC(=O)c1ccccc1C (stereo unspecified)
97.9% (inactive)

Please give the result for CC1CCC(=O)N1c1ccc(N)cc1 (stereo unspecified) too.
97.8% (inactive)

Please give the result for Cc1ccc([N+](=O)[O-])cc1Br too.
97.9% (inactive)

Please give the result for Nc1c(Cl)cc2c(c1Br)C(=O)c1ccccc1C2=O too.
88.8% (inactive)

Please give the result for CCOC(=O)c1ccc(N2C(=O)C(Cl)(c3ccccc3)C2c2ccco2)cc1 (stereo unspecified) too.
76.4% (inactive)

Please give the result for CC(=O)Nc1ccc2oc(=O)ccc2c1 too.
102% (inactive)

Please give the result for Cc1cc(-c2ccc(N=Nc3c(C)nn(-c4ccc(S(=O)(=O)O)cc4)c3O)c(C)c2)ccc1N=Nc1ccc(O)c(C(=O)O)c1 too.
99.9% (inactive)

Please give the result for CN(C)C(=S)N(C)C too.
110% (inactive)

Please give the result for O=COCCCc1ccccc1 too.
96.7% (inactive)

Please give the result for COC(=O)c1nc(=S)[nH]c(C(=O)OC)c1C(=O)c1ccc(OC)cc1 too.
101% (inactive)

Please give the result for COc1ccc(CCl)c(C)c1OC too.
107% (inactive)

Please give the result for COc1ccc2nccc(Cl)c2c1 too.
103% (inactive)

Please give the result for NCCCCCC(=O)O too.
103% (inactive) [middle of 4 runs]

Please give the result for Cc1c(Cl)c(C)c(Cc2c(C)c(Cl)c(C)c(Cl)c2O)c(O)c1Cl too.
10.6% (inactive)

Please give the result for Nc1ccc2ccc(NS(=O)(=O)N3CCCCC3)cc2c1 too.
40.3% (inactive)

Please give the result for O=C(c1ccncc1)c1c(Cc2ccccc2)ccc2ccccc12 too.
96.7% (inactive)

Please give the result for OCCCc1ccccc1 too.
99.3% (inactive)

Please give the result for CCOC(=O)C1=C(C)NC(C)=C(C(=O)OCC)C1 too.
99.5% (inactive)

Please give the result for CCCCC/C(C)=N\NC(N)=S too.
105% (inactive)

Please give the result for COC(=O)c1ccccc1Cl too.
108% (inactive)

Please give the result for O=C1Cc2ccccc2C(=O)N1 too.
106% (inactive)

Please give the result for CCNCc1ccccc1 too.
109% (inactive)

Please give the result for Cc1c(O)nc(N)[nH]c1=O too.
108% (inactive)

Please give the result for CCCCCCCCCCCCCCCCC(=O)O too.
105% (inactive)

Please give the result for C/C(=C\c1ccccc1)C(O)C(=O)c1nc2ccc([N+](=O)[O-])cc2[nH]c1=O (stereo unspecified) too.
85.5% (inactive)

Please give the result for Cc1c(Cl)cc(Cl)c(N)c1Cl too.
109% (inactive)

====

Test system: HCT-15 colon
procedure_details: NCI-60 one-dose screen, 48 h (100 = growth as untreated, 0 = no growth, -100 = all killed)
run_parameters: 10 µM unless noted
The panel holds about 83,000 compounds, 20% with a hit somewhere; the sample as a whole holds those more often.
Answer each item with its documented growth.
Kindly provide the numeric value in % only, without the unit symbol.

Entry COC(=O)c1nc(=S)[nH]c(C(=O)OC)c1C(=O)c1ccc(OC)cc1 has what growth?
100

Please give the result for COc1ccc(CCO)cc1 too.
102

Please give the result for CCCCC/C(C)=N\NC(N)=S too.
79.4

Please give the result for O=C(c1ccc(Cl)cc1)C1C(c2ccccc2)C1[N+](=O)[O-] (configuration not stated) too.
102

Please give the result for O=C1c2ccccc2CN1c1ccccc1 too.
107

Please give the result for COC(=O)CCOc1ccccc1 too.
101

Please give the result for O=C1C=CC(n2cc(F)c(=O)[nH]c2=O)O1 (configuration not stated) too.
57.8
